Experiment: folding stability dG unfold from trypsin proteolysis; higher = more stable
Listing: folding stability dG unfold of selected sequences
value_kind: folding stability dG unfold (kcal/mol)

>  <sequence_chain>
SAGGNPSASPVVTETELPDGSRVTTTTYPSGTTTRTVTDLVTGKKTLVTTTTTPGTGATTTTTTPVPPSAGG [r13_822_JUSTAS]

>  <reported>
0.151

$$$$
>  <sequence_chain>
SAGGSAGGSAGKIEIYPNDNQYYIKITVPRRNPNNGKWERQERTIPMPPDQAKELLKNGISAGGSAGGSAGG [r11_389_TrROS]

>  <reported>
0.0667

$$$$
>  <sequence_chain>
SAGGSAGGSAGPPNKPVYVRVRIQMPNGKKKTFWFKDVEQIEKNLKEEFGIRDIEIEPIKSAGGSAGGSAGG [r17_508_TrROS]

>  <reported>
1.62

$$$$
>  <sequence_chain>
SAGGSAGGMTFVDLGEDKPVVIEVPPRPETGLYPVVIHPPEKPVFVEVESPEEAIEAAEKLVEGSAGGSAGG [r6_715_TrMRF]

>  <reported>
1.42

$$$$
>  <sequence_chain>
SAGGMTPAVTETTIELPASDPEAAIAALRAAGWELLARERGPDGSVRMVFAAPTRRVTVDFVGPAAASAGGS [r16_170_JUSTAS]

>  <reported>
1.06

$$$$
>  <sequence_chain>
SAGGSAGGSAGKTIVLKTPEAIKNLKEGDVIKLKDGKKYKIVKVEYDKETNYFTIEIEKESAGGSAGGSAGG [r11_316_TrROS_Hall]

>  <reported>
2.96

$$$$
>  <sequence_chain>
SAGGSAGGSAGSYTVTPITLKLPDGTEVDAVLTTDPAGNVTLTLTGDSPLSTLTFPASTLSAGGSAGGSAGG [r11_327_JUSTAS]

>  <reported>
0.119

$$$$
>  <sequence_chain>
SAGGSAGGSAGGPDDWVEVYFIMVSIKPKEVKPDPNGGAEYEFEIKISIFPFWIPPDDISAGGSAGGSAGGS [r10_524_TrROS]

>  <reported>
3.33

$$$$
>  <sequence_chain>
SAGGSAGGSLKKGEKVKLRARIYEPGGGKLLAELEIEADVGKAEEIAEELRKAFPGYEVEIELSAGGSAGGS [r12_21_TrMRF]

>  <reported>
2.67

$$$$
>  <sequence_chain>
SAGMKITISYDEAKGIATVTLYEERPVETPNGPVTLRRKVATVTIPYTSLEEAKKQAEEAAKALLEKLSSAG [r5_956_JUSTAS]

>  <reported>
5.11

$$$$
>  <sequence_chain>
SAGGMAIKDVRVEGGVLYVYRGDKLVAKIEPGAAQPPVLVRFPDGTVVAVPRSVALALNPETLEFFDVSAGG [r13_802_TrMRF]

>  <reported>
1.24

$$$$
>  <sequence_chain>
SAGDALKDLAPDVEITPSSFPFAFPPSRPVLAASIVAHPDNTITVFLTEVHPDGGARVLVYTLHLSDKSAGG [r19_125_TrMRF]

>  <reported>
2.78

$$$$
>  <sequence_chain>
SAGGSAGGSAMPPDAKPVRTETDPATGTTTEYILYPDSDTTIRKTHLPDGSVQVEEFSVSKTSAGGSAGGSA [r18_521_JUSTAS]

>  <reported>
-0.743

$$$$
>  <sequence_chain>
SAGGSAGGSAGGEIKGKKFKIVKIVEVRYDKETKEFYVRIYIEDTNEIITVRLEDLPEELSAGGSAGGSAGG [r7_304_TrROS_Hall]

>  <reported>
1.83

$$$$
>  <sequence_chain>
SAGGSAGGSAGMPKVEAVDISYSADPNSKSYTITIKSPDGEPIVLTLNSPSEIENLELVLSAGGSAGGSAGG [r11_711_JUSTAS]

>  <reported>
1.19

$$$$
>  <sequence_chain>
SAGGSALPALAERFPDAEIEPVGDDGTSVTYRFRFPGGDYLLVTVPFLPGTTEAVVDIEWVPRDALSAGGSA [r15_547_TrMRF]

>  <reported>
1.68

$$$$
>  <sequence_chain>
SMPEKYIVRVEVRGRDGKTVTFEAEATVDSSDFDDFIEAILEAPGLEDADEVRFYVYRLGTGRPEEFTVPSA [r9_97_TrMRF]

>  <reported>
2.01

$$$$
>  <sequence_chain>
SAGGSAGGSAKTVVINIKDLKLSKDGKLTVEEIKKRIKELLKKKGIKKVTVKTVEELLKALKSAGGSAGGSA [r18_72_TrROS_Hall]

>  <reported>
0.898

$$$$
>  <sequence_chain>
SAGGKPTQTITITLKDGRTLTIKVGQTVTITLDNGKTITVTVKDATITVKDGKVTITVNGKTYTFTVKSAGG [r13_643_TrROS_Hall]

>  <reported>
3.45

$$$$
>  <sequence_chain>
SAGGSASVEVSVEEKDGTLTVTVTVEVDGKLVTVTVTLTLPPPPPLSAEELEKAREAEKEGKTVEVSAGGSA [r15_631_TrROS_Hall]

>  <reported>
1.24

$$$$
>  <sequence_chain>
SAGGSAGGSKKKLTLTLKVEYVDEETGEKRTVTLTITAESEEEAKAALEELAKKLPPGARIEVSAGGSAGGS [r20_211_TrROS_Hall]

>  <reported>
3.3

$$$$
>  <sequence_chain>
SAGGMGISTEPEISFERKTLPDGTYVLEIHTTTTTTDSSGVVTTTTSTKTVKFSPDNPEKIKELIEALSAGG [r13_412_JUSTAS]

>  <reported>
2.67

$$$$
>  <sequence_chain>
SAGGESYPFIGRNPETNALIEVTVTKLESGEYLVNATITNPNGETVEFPFTFPANSLTPESEIDVTITSAGG [r13_959_TrMRF]

>  <reported>
1.65

$$$$
>  <sequence_chain>
SAGGSAGGMILIKNEDGSLYLIEVETVTVTVKVKLPEELKELLKGIKPGDTITVTVTKVRIVKLSAGGSAGG [r6_907_TrROS_Hall]

>  <reported>
3.79

$$$$
>  <sequence_chain>
SAGGSAGGSMKVYKLPGGYTVTVEPVDGGTLVTITLPDGSVKTKFVPPDEPVVVDPNGAKITVSAGGSAGGS [r12_281_JUSTAS]

>  <reported>
1.85

$$$$
>  <sequence_chain>
SAGGSASVKVEETVEFLPGGVVKTTTRTFFPDGTVTTTDTVTALPPVPVYDISSPENLSPALERLASAGGSA [r15_1018_JUSTAS]

>  <reported>
0.543

$$$$
>  <sequence_chain>
SAGGSAGGSAGGKKKKVIEIELKPGEKLTLEQIKEIAKKLNVKKVKVEKVDGKLKIVVESAGGSAGGSAGGS [r10_642_TrROS_Hall]

>  <reported>
0.502

$$$$

* * *

Test: folding stability dG unfold (combined trypsin and chymotrypsin); higher = more stable
# binarize folding stability dG unfold: threshold 1 kcal/mol inclusive, high side 1 (yes), low side 0 (no)

>  <sequence_chain>
SAGGSAGGSADEPETTTTTTTTTTTKKPAPPAPPKTITLDVEVNGKTLRLTFTSKEALDALSAGGSAGGSAG [r3_426_TrROS_Hall]

>  <class_label>
1 (yes)

$$$$
>  <sequence_chain>
SAGGSAGGSAGPGLSITTTITTTTPAKLPNGTAPLRTTTTTIITELKPADPNNPVILANTSAGGSAGGSAGG [r11_236_JUSTAS]

>  <class_label>
0 (no)

$$$$
>  <sequence_chain>
SAGGSAGGSGDKDEVDPNKNISPIPPVKATIFPPDGTPRTVTFTSEEELKAYAEARGWTIEVPSAGGSAGGS [r12_244_JUSTAS]

>  <class_label>
0 (no)

$$$$
>  <sequence_chain>
SAGGSAGGSEIPDIEITIDSIEFFPDGTVRITATVRFPGGGTAKITLTLPAPPAEYEPPSDLLSAGGSAGGS [r12_558_TrMRF]

>  <class_label>
1 (yes)

$$$$
>  <sequence_chain>
QRTVYIPIRGMPPDQMVDMIRMALRQAREKGHPNRTIRIWMPGPPEQRERARRYIKELADEPGLNVTIEGWS [r1_387_TrROS]

>  <class_label>
1 (yes)

$$$$
>  <sequence_chain>
SAGGPNFEIEPEWDPDNGIVKETIKVPPGMTPEAINDALEIEFPDGMEVQIKPIKDGTIKVYMRMPKSAGGS [r8_255_TrROS]

>  <class_label>
0 (no)

$$$$

* * *

Assay: folding stability dG unfold from trypsin proteolysis; higher = more stable
# binarize folding stability dG unfold: threshold 1 kcal/mol inclusive, high side rule met, low side rule not met

>  <sequence_chain>
SAGGMEVREIDVENEDGHNVKIEIWWMPGEGWIMVKIEGPNPALIDDIQKEIGLPILEVMKDGYLMIKSAGG [r13_937_TrROS]

>  <class_label>
rule met

$$$$
>  <sequence_chain>
SAGGSAGGSAGGSPGNYREVEIEFRDPDDNGKEVKIEIWVQPGMPEEQIKEFVRELLRRSAGGSAGGSAGGS [r4_442_TrROS]

>  <class_label>
rule not met

$$$$
>  <sequence_chain>
SAGGSAGGSAGGDKNGKKELRPEVKIKVKIEAEIEPFRYPNNGMPMWILKISIEITSIDSAGGSAGGSAGGS [r10_877_TrROS]

>  <class_label>
rule met

$$$$
>  <sequence_chain>
SAGGSAGGSAGGMKTLTVTTESLTKEEIIEEIKAMGYPNAKVTVTPSPENPDKYIVNVIESAGGSAGGSAGG [r7_988_JUSTAS]

>  <class_label>
rule not met

$$$$
>  <sequence_chain>
SAGSSMSLPLPEEIEIEIPNPGLSLEEIKKIVADKLGLKIVSVEEEEGRLVFKAENGIPIRVKIEEPGKSAG [r5_350_JUSTAS]

>  <class_label>
rule met

$$$$
>  <sequence_chain>
SGLLEKFLKEAEEWIKKLGLKVKPGEKVEIPIPFENNLIAKIEFYPGEKIIKVVLIGENKPVEYKFKIEKSA [r9_426_TrMRF]

>  <class_label>
rule met

$$$$
>  <sequence_chain>
SVPVAPDKTYEIENIEEGNYLIKGLTLTPLPDGSVKIDKDIEPIEIPPKPPPLKYDPVKGGFIKPNDPLLSA [r9_603_JUSTAS]

>  <class_label>
rule not met

$$$$
>  <sequence_chain>
SAGGSAGGSAGGMSPGSSSTTVTTTTSPNGTVVTTTTTTTLDPNSNTTSSTTTTTTTTTSAGGSAGGSAGGS [r10_1164_JUSTAS]

>  <class_label>
rule met

$$$$
>  <sequence_chain>
SAGGWHTIQINVRRPGKPITPEKIKEALREAYPGYPIEVEDINPEDGRITITVPENAMPRIKEALMKSAGGS [r8_235_TrROS]

>  <class_label>
rule met

$$$$
>  <sequence_chain>
SAGGMAEEVAEAVRDFFESQGLPAEVEPLSVHPNNLVVYRFRVPGYYALVVADPDNPVVVVTVYPLPSAGGS [r8_157_TrMRF]

>  <class_label>
rule met

$$$$
>  <sequence_chain>
SDEGYKVEINPMIHRTDGKVTIMFMIQIKPGLDDLKIKIKLRLPDGKPMKVDYQRNPDNGFIMVSATMPPSA [r9_159_TrROS]

>  <class_label>
rule met

$$$$
>  <sequence_chain>
SAGGSAGGRLLLVKITLPDGEEITIVLEFESEEEARAAAEALLPPGAKVEVRELSEEELEALLKSAGGSAGG [r6_267_TrROS_Hall]

>  <class_label>
rule met

$$$$
>  <sequence_chain>
SAELLDALKKNGWTIRIPIKHPGNGETWPMPFRIEPDGDGWKISIPPPNGKPHPFKIEDIEIMPPEDLKSAG [r14_427_TrROS]

>  <class_label>
rule not met

$$$$
>  <sequence_chain>
SAGGSAGGSAGEVVRVYPTPDGTTVTITPHPTTYTVTTTSPDGVPTTTPVSPAEVAALGLSAGGSAGGSAGG [r17_127_JUSTAS]

>  <class_label>
rule not met

$$$$
>  <sequence_chain>
SAGGATIELEVLLEDGTLVRVRAELDEDGRLVSVEVEVRRLEPPPPPPPPERTETRVETRTEYRPEESAGGS [r8_270_TrROS_Hall]

>  <class_label>
rule met

$$$$
>  <sequence_chain>
SAPEVEVFPGKDNSALVRVVFEFDGYRIEVVRRVPVEALKAGIPLEELPDVEILEVRVVKLPKPRPDELSAG [r14_856_TrMRF]

>  <class_label>
rule met

$$$$
>  <sequence_chain>
SMPAEMSPEEVREAVRALVEEALAANPGEPVTVPIEEIRAALPGYSPEVLREVLGLTEEEIAAGPVTLRLSA [r9_525_JUSTAS]

>  <class_label>
rule not met

$$$$
>  <sequence_chain>
SAGGSAGGSPVVTVENVTRPSDYYTYTFKLPDGTVITLDAKSEEEAREKAKELGLENLNFKTEESAGGSAGG [r6_601_JUSTAS]

>  <class_label>
rule met

$$$$
>  <sequence_chain>
STIMIMFRSPEDLEKFLNEAKEMIRNGKNVPITIMAHGPNGRYWMFTIDIKMDPDGNPKIEIEWEPVPPDSA [r9_1023_TrROS]

>  <class_label>
rule met

$$$$
>  <sequence_chain>
SAGGSAGGSEIKIEKAEITVEYDEETGVFRATITLPDGYRITAEFRLRPDGSLELTRVEIEEVSAGGSAGGS [r12_111_TrROS_Hall]

>  <class_label>
rule met

$$$$
>  <sequence_chain>
SWWYMVKIEIENGGKPIKIPVPVNDLDDFIDNAREAIPPDLADQLPPNMEVEVEVMPIPRVDPENGKPRPSA [r9_111_TrROS]

>  <class_label>
rule not met

$$$$
>  <sequence_chain>
SAGGSAGGSAGIEIELNGKPVTIHPNPDGYYRVRFPGPGKSILIPGMPPDDIKDFAKELLSAGGSAGGSAGG [r11_1085_TrROS]

>  <class_label>
rule not met

$$$$
>  <sequence_chain>
SPVTVTITLPNGETITLTFPAGMTAEELKAAVLAELKRLLPPGAKIEVVDIEVTEVVAPGETVTVTVRLTSA [r9_178_TrROS_Hall]

>  <class_label>
rule met

$$$$
>  <sequence_chain>
SAGGSAGGSAGMELAEEVARKGKPGTLVTFTPPGGRVQLATVRGDEVTPSGLSPDYSVTLTSAGGSAGGSAG [r3_244_JUSTAS]

>  <class_label>
rule not met

$$$$
>  <sequence_chain>
SAGGEKVKRVLVRDKKTKEWREVEVKEAKVEPPPVITIKIELSEEEAKKLAELLRKLFPDAKVTVVKSAGGS [r8_437_TrROS_Hall]

>  <class_label>
rule met

$$$$
>  <sequence_chain>
SSSLDYVFKDIDPSSPNKLTLSEIKPVPESDKVVNKIVFPTKTILVTFDSAEDAEAHIGLLLKLFGSPPESA [r9_258_TrMRF]

>  <class_label>
rule not met

$$$$
